Would you kindly list switch fluorescence ratio for each of these sequences?
test system: ATP; test: switch fluorescence ratio, 500 uM ATP over buffer (Cy3 cluster intensity, sum of 5 cycles each) (fold (ratio)); higher = stronger signal-on switching upon ATP binding; sequences stand for … in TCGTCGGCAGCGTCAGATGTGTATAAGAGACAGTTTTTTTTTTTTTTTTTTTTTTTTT…TC; details: aptamer strand: ATP DNA aptamer (quencher-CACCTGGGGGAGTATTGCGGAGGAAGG + anchor), 100 nM annealed; ATP concentration: 500 uM;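 note: ATP exposure 15 min at 22 °C before imaging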
Just the number, please, no unit after it.

[in] // lookup switch fluorescence ratio for GGGGAGGTAA
[out] 0.973

[in] Same question for ATGGTTGGAC please.
[out] 0.993

[in] Same question for TAGAGCAGGT please.
[out] 1.03

[in] Same question for TTACACACAC please.
[out] 1.53

[in] Same question for AGAATGTGGG please.
[out] 0.996

[in] Same question for CAGTCGCCAG please.
[out] 1.02

[in] Same question for TTTTTGGTGA please.
[out] 0.984

[in] Same question for AGTAGAGTGT please.
[out] 0.995

[in] Same question for AAGGGTAGGC please.
[out] 1.03

[in] Same question for CCTGTAGGCC please.
[out] 0.998
